- Test system: S. cerevisiae Mot1-301 ts growth rescue, BacTiter-Glo ATP luminescence
- measurement description: restored Mot1-301 yeast growth at 38.5C – whole organism, S. cerevisiae, Mot1-301 ts mutant, luminescence, dose retest, SUMOylation pathway inhibitor project, confirmation (AID 463204);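 also: growth at restrictive 38.5 degrees C of Mot1-301 OY566 strain; actives raise luminescence by restoring growth of the ts mutant at high temperature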
Active and inactive are the calls of the source.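 The calls were made as follows: active = AC50 no more than ten times the top concentration tested, that is within one log above it; inconclusive = flat curve fit with activity between 30% and 70%, or invalid poor fit; inactive = AC50 beyond ten times the top tested dose.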
One label from this list, please: active, inactive

Example entries begin here.
Which result was noted for this molecule in the test: Cc1ccc(S(=O)(=O)NCC(C)n2cncn2)cc1 (stereo unspecified)
inactive

Which result was noted for this molecule in the test: O=C(NNC(=O)c1csc(N2CCOCC2)n1)c1ccc(Cl)nc1
inactive

***
Which result was noted for this molecule in the test: Nc1nnnn1CC(=O)N/N=C/c1cccs1
inactive
